target: Bromodomain-containing protein 4 (Homo sapiens); test: Inhibition of BRD4 (unknown origin)
quantity-measured: IC50
Put your answer as a value accompanied by its unit after it.

input: What is its IC50 for Bromodomain-containing protein 4 (Homo sapiens)? Entry: O=C(CCCCOc1ccccc1C(=O)Nc1cccc2[nH]cnc12)NO
output: 260 nM

input: Missing value: IC50, Bromodomain-containing protein 4 (Homo sapiens), entry Cc1noc(C)c1-c1cc(NC(=O)CCCCCC(=O)NO)cc(C(=O)c2ccccc2)c1 . Fill in?
output: 670 nM

input: Field: IC50 (Bromodomain-containing protein 4 (Homo sapiens)). Entry: Cc1noc(C)c1-c1ccc2c(c1)c(Cc1ccc(F)cc1)cn2CCCCCCC(=O)NO
output: 670 nM

input: What reported IC50 corresponds to COc1cc(OC)c2c(=O)[nH]c(-c3cc(C)c(OCCCCC(=O)NO)c(C)c3)nc2c1 on Bromodomain-containing protein 4 (Homo sapiens)?
output: 670 nM
